Substrate: p-NP-C4
conditionDescription: pH 7; 25 °C
measuredParameter: kcat (s⁻¹)
Give the number; s⁻¹ is assumed, so skip it.

Challenge: Give kcat for unnamed (protein) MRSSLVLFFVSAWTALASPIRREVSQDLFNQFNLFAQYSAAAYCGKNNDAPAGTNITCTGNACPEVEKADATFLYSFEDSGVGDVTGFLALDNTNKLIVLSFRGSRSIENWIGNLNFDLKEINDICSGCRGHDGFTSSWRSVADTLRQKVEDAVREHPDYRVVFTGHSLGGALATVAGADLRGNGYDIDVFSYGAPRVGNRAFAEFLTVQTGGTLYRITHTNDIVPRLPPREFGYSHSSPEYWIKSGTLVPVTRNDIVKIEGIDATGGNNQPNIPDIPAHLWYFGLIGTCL
Response given: 580

Challenge: Give kcat for unnamed (protein) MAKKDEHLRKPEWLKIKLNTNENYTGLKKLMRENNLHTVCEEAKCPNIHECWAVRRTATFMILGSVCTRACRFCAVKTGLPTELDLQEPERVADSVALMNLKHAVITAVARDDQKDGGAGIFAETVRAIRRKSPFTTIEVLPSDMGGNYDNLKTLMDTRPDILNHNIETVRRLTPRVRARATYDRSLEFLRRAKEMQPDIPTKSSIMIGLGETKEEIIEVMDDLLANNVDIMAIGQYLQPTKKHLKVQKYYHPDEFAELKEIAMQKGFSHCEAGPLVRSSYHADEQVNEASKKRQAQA
Response given: 50
